molecules and their reported responders at 50 mg/kg
Tested on: subcutaneously pentetrazol-injected model (scPTZ)
Experiment: Subcutaneously pentetrazol-injected model (scPTZ) test
Type: in vivo, mice
Conditions: Mus musculus, po, 1 h, 50 mg/kg oral, Slc: ddY male mice, 3 per group, pentetrazol 85 mg/kg s.c. after 1 hour, observed 30 minutes for clonic convulsion; read-out: scPTZ (positive number/tested number) (converted)
quantity.measured: responders at 50 mg/kg (%)

>>> df
                                   molecule  value_observed
0  NC(=O)Cc1cc(Cl)ccc1-c1ccc(Cl)cc1 [Example 109, 2-(4,4′-dichlorobiphenyl-2-yl)acetamide]            66.7
1           NC(=O)Cc1ccccc1-c1cc(F)cc(Cl)c1            66.7
2           NC(=O)Cc1ccc(F)cc1-c1cccc(Cl)c1            33.3
3  NC(=O)Cc1ccccc1-c1cccc(F)c1 [Example 25, 2-(3′-fluorobiphenyl-2-yl)acetamide]             100
4       NC(=O)Cc1ccccc1-c1cc(C(F)(F)F)ccc1F            33.3
5  NC(=O)C(O)c1cc(F)ccc1-c1ccccc1 (stereo not drawn)            66.7

====

System: subcutaneously pentetrazol-injected model (scPTZ)
Assay: Subcutaneously pentetrazol-injected model (scPTZ) test
Type: in vivo, mice
Conditions: Mus musculus, po, 1 h, 100 mg/kg oral, Slc: ddY male mice, 3 per group, pentetrazol 85 mg/kg s.c. after 1 hour, observed 30 minutes for clonic convulsion; read-out: scPTZ (positive number/tested number) (converted)
molecules and their reported responders at 100 mg/kg
quantity.measured: responders at 100 mg/kg (%)

>>> print(df.to_string())
                                    molecule  value_observed
 0     NC(=O)Cc1cc(C(F)(F)F)ccc1-c1cccc(F)c1            66.7
 1              CCNC(=O)Cc1ccccc1-c1ccccc1Cl            33.3
 2        CNC(=O)Cc1cc(F)c(F)cc1-c1cccc(F)c1            33.3
 3          CNC(=O)Cc1cc(F)ccc1-c1ccc(Cl)cc1               0
 4               CCNC(=O)Cc1ccccc1-c1ccccc1F            33.3
 5      NC(=O)Cc1ccccc1-c1ccc(C(F)(F)F)cc1Cl            66.7
 6  NC(=O)Cc1ccccc1-c1ccc(Br)cc1 [Example 49, 2-(4′-Bromobiphenyl-2-yl)acetamide]            66.7
 7          N#Cc1ccc(-c2ccccc2CC(N)=O)c(F)c1            66.7
 8              CNC(=O)Cc1cc(F)ccc1-c1ccccc1               0
 9  CC(C(N)=O)c1ccccc1-c1ccccc1 (stereo not drawn) [Example 56, 2-(Biphenyl-2-yl)propanamide]            66.7
10             CNC(=O)Cc1ccccc1-c1ccc(Cl)cc1            33.3
11             CCNC(=O)Cc1ccccc1-c1cccc(F)c1            33.3
12              NC(=O)Cc1ccc(Cl)cc1-c1ccccc1            33.3
13    CNC(=O)Cc1cc(F)ccc1-c1ccc(C(F)(F)F)cc1               0
14       CNC(=O)Cc1ccccc1-c1ccc(C(F)(F)F)cc1               0
15          CN(C)C(=O)Cc1ccccc1-c1ccc(Cl)cc1            33.3
16  CNC(=O)Cc1ccccc1-c1ccccc1 [Example 54, 2-(biphenyl-2-yl)-N-methylacetamide]            33.3
17            NC(=O)Cc1ccc(F)cc1-c1ccc(F)cc1            66.7
18     NC(=O)Cc1cc(F)ccc1-c1ccc(C(F)(F)F)cc1               0
19  COC(C(=O)N(C)C)c1ccccc1-c1ccc(F)cc1 (stereo not drawn)            66.7
20  NC(=O)Cc1ccc(F)cc1-c1ccccc1F [Example 41, 2-(2′,5-difluorobiphenyl-2-yl)acetamide]            66.7
21         NC(=O)C(F)(F)c1ccccc1-c1cccc(F)c1            66.7
22             CNC(=O)Cc1ccccc1-c1ccc(Br)cc1               0
23             NC(=O)Cc1ccccc1-c1cccc(Cl)c1F            33.3
24           NC(=O)Cc1ccc(F)cc1-c1cccc(Cl)c1            66.7
25      NC(=O)Cc1ccccc1-c1cc(OC(F)(F)F)ccc1F             100
26           CNC(=O)Cc1cc(F)ccc1-c1ccc(F)cc1               0
27  CNC(=O)C(OC)c1ccccc1-c1ccccc1F (stereo not drawn)            66.7
28        NC(=O)Cc1ccccc1-c1ccc(C(F)(F)F)cc1            33.3
29            NC(=O)Cc1ccc(F)cc1-c1cccc(F)c1            33.3
